system: WHIM30 (cells of a triple-negative basal-like breast cancer xenograft); test: cell viability of combination (% of vehicle); higher = less cytotoxic; details: 1 µM; 72 h; partner dose: 10 nM
measured metric: cell viability of combination
Give bare numbers.

compound="CC(C)(C)NC(=O)C1CC2CCCCC2CN1CC(O)C(Cc1ccccc1)NC(=O)C(CC(N)=O)NC(=O)c1ccc2ccccc2n1.CS(=O)(=O)O (stereo not drawn) [Saquinavir mesylate] + CC(C)C[C@H](NC(=O)[C@H](CCc1ccccc1)NC(=O)CN1CCOCC1)C(=O)N[C@@H](Cc1ccccc1)C(=O)N[C@@H](CC(C)C)C(=O)[C@@]1(C)CO1" number=22.9

Please state, for each entry, its recorded cell viability of combination.
1. CNCCCC12CCC(c3ccccc31)c1ccccc12.Cl [Maprotiline HCl] + CC(C)C[C@H](NC(=O)[C@H](CCc1ccccc1)NC(=O)CN1CCOCC1)C(=O)N[C@@H](Cc1ccccc1)C(=O)N[C@@H](CC(C)C)C(=O)[C@@]1(C)CO1
2. COc1ccc(C[C@H](N)C(=O)N[C@@H]2[C@H](O)[C@H](n3cnc4c(N(C)C)ncnc43)O[C@@H]2CO)cc1.Cl.Cl [Puromycin dihydrochloride] + CC(C)C[C@H](NC(=O)[C@H](CCc1ccccc1)NC(=O)CN1CCOCC1)C(=O)N[C@@H](Cc1ccccc1)C(=O)N[C@@H](CC(C)C)C(=O)[C@@]1(C)CO1

16
5.17

###

test system: WHIM2 (cells of a triple-negative basal-like breast cancer xenograft); assay: cell viability (% of vehicle); higher = less cytotoxic; details: 10 µM; 72 h
# note: boundary value 100 maps to f; cell viability below it maps to t

Example entries and their recorded answers appear below.
compound="Nc1nnc(-c2cccc(Cl)c2Cl)c(N)n1 [Lamotrigine]" category_label=t
compound="CC(C)(Sc1cc(C(C)(C)C)c(O)c(C(C)(C)C)c1)Sc1cc(C(C)(C)C)c(O)c(C(C)(C)C)c1 [Probucol]" category_label=t
compound="CN(CCOc1ccc(CC2SC(=O)NC2=O)cc1)c1ccccn1 (stereo not drawn) [Rosiglitazone]" category_label=f

Bench note: check whether CCc1cnn2c(NCc3ccc[n+]([O-])c3)cc(N3CCCCC3CCO)nc12 (stereo not drawn) shows cell viability below 100
t

###

tested on: HCI03 (cells of an ER-positive luminal breast cancer xenograft); assay: cell viability (% of vehicle); higher = less cytotoxic; conditions: 10 µM; 72 h
The label is Criterion met for cell viability below 100 and Criterion not met for cell viability equal to or exceeding 100.

Solved entries (count: 2):
molecule=CC[C@H](C)[C@H]1O[C@]2(CC[C@@H]1C)C[C@@H]1C[C@@H](C/C=C(\C)[C@@H](O[C@H]3C[C@H](OC)[C@@H](O[C@H]4C[C@H](OC)[C@@H](O)[C@H](C)O4)[C@H](C)O3)[C@@H](C)/C=C/C=C3\CO[C@@H]4[C@H](O)C(C)=C[C@@H](C(=O)O1)[C@]34O)O2 category_label="Criterion met"
molecule="CN(CC/C=C1C2=CC=CC=C2C=CC3=CC=CC=C3\\1)C.Cl [Cyclobenzaprine HCl]" category_label="Criterion met"

Threshold test, cell viability < 100: COc1ccc(C2Sc3ccccc3N(CCN(C)C)C(=O)C2OC(C)=O)cc1.Cl (configuration not stated) [Diltiazem HCl]
Criterion not met

In plain terms, does CC(=O)Nc1ccccc1 [Acetanilide] come in under 100 for cell viability?
Criterion not met

A record lists CN(C)CCC(c1ccccc1)c1ccccn1.O=C(O)C=CC(=O)O (configuration not stated) [Pheniramine Maleate] . Is its cell viability below 100?
Criterion not met

Answer whether the molecule `O=c1c(-c2ccc(O)cc2)coc2cc(O)cc(O)c12` has cell viability strictly less than 100
Criterion not met

Dear colleague, could you confirm whether cell viability of N#CC1CC2CC2N1C(=O)C(N)C12CC3CC(CC(O)(C3)C1)C2 (configuration not stated) falls below 100? Thanks.
Criterion not met
